Reported MIC is given for each of the following substances.
Test system: Serratia marcescens
Test: MIC against Gram-negative bacteria: Serratia marcescens
Type: cell-based
Settings: S. marcescens; 10 h cultivation at 37° C.
Quick reminder: number only, in µg/mL, skip the unit.

As a guide, the following entries are already answered.
PRT987 (NVDDCPGHRCLNGGTCVDGVNTYNCQCPPEWTGQFCT; listed as Homo sapiens)
50
PRT1020 (SRQTCANNRHQCSVHAECRDYATGFCCSCVAGYTGNGRQCV; listed as Homo sapiens)
25
PRT967 (ARDACESQPCRAGGTCSSDGMGFHCTCPPGVQGRQCE; listed as Homo sapiens)
12.5
PRT1002 (FPDPCQNAQLCQNGGSCQALLPAPLGLPSSPSPLTPSFLCTCLPGFTGERCQ; listed as Homo sapiens)
12.5

Field request: MIC | item: PRT905 (DVNECDSQPCLHGGTCQDGCGSYRCTCPQGYTGPNCQ; listed as Homo sapiens)
12.5

---

Reported MIC (μg/mL) P. aeruginosa is given for each of the following substances.
System: Pseudomonas aeruginosa
Assay: MIC against Gram-negative bacteria: Pseudomonas aeruginosa
Format: cell-based
Details: P. aeruginosa; 10 h cultivation at 37° C.; 5×10^5 CFU/mL
Quick reminder: number only, in µg/mL, skip the unit.

As a guide, the following entries are already answered.
PRT259 (GGCHTDALCSYVGPGQSRCTCKLGFAGDGYQC; listed as Homo sapiens)
50
PRT260 (CRAGNGGCHGLATCRAVGGGQRVCTCPPGFGGDGFSC; listed as Homo sapiens)
50

Now let's try a different one.
Field request: MIC (μg/mL) P. aeruginosa | item: PRT797 (WGPNCSVSCSCENGGSCSPEDGSCECAPGFRGPLCQ; listed as Homo sapiens)
50

---

Tested on: E. coli DH5α
Test: Antibacterial activity: MIC and growth curve against E. coli DH5α in 96-well plate
Type: cell-based
Conditions: minimal inhibitory concentration against E. coli DH5α; 96-well plate, 5×10^5 CFU/mL, 37° C., judged after 8 h
Procedure: 1. E. coli DH5α was exemplified. E. coli DH5α was streaked and cultured on LB solid medium. […] 4. […] Samples were taken every 30 min, the absorbance values were determined at 600 nm wavelength under a ultra violet spectrophotometer, and an inhibition curve was plotted. […] According to the experimental procedures in Example 14, the minimal inhibitory concentrations (MIC, μg/mL) of the other human-originated EGF domain proteins (PRT2 to PRT1498 in Table 1) for E. coli DH5α were determined.
measurement-type: MIC (µg/mL)
Quick reminder: number only, in µg/mL, skip the unit.

As a guide, the following entries are already answered.
PRT1270 (DVDECSLDRTCDHSCINHPGTFACACNRGYTLYGFTHCG; listed as Homo sapiens)
50
PRT1096 (QLNVCNSNPCLHGGNCEDIYSSYHCSCPLGWSGKHCE; listed as Homo sapiens)
12.5
PRT66 (DDNICLREPCENYMKCVSVLRFDSSAPFLSSTTVLFRPIHPINGLRCRCPPGFTGDYCE; listed as Homo sapiens)
12.5
PRT524 (CNCSRRGTIEAAMPECDRDSGQCRCKPRITGRQCDRCASGFYRFPECVP; listed as Homo sapiens)
12.5
PRT1389 (PEEQCIDPTCFGHGTCIMGVCICVPGYKGEICE; listed as Homo sapiens)
25
hF VII-EGF1: human coagulation factor VII-EGF1 domain protein, molecular weight about 3.9 kD, recombinant, released from RFP fusion by rTEV (DGDQCASSPCQNGGSCKDQLQSYICFCLPAFEGRNCE; listed as Homo sapiens)
12.5
PRT802 (SNRCQCQNGALCNPITGACVCAAGFRGWRCE; listed as Homo sapiens)
12.5
PRT1448 (ACREGRFGQSCQEQCPGISGCRGLTFCLPDPYGCSCGSGWRGSQCQ; listed as Homo sapiens)
25
PRT1498 (PESPCLQNPCQNDGQCREQGATFTCECEVGYGGGLCM; listed as Homo sapiens)
50
PRT451 (SFYCSCRPGYKLMSDKRTCVDIDE; listed as Homo sapiens)
25

Field request: MIC | item: PRT161 (KVDPCASSPCQNNGTCYVDGVHFTCNCSPGFTGPTCA; listed as Homo sapiens)
12.5

Field request: MIC | item: PRT1465 (CECDSLGTLPGTICDPISGQCLCVPNRQGRRCNQCQPGFYISPGNATGCLP; listed as Homo sapiens)
12.5

Field request: MIC | item: PRT1070 (RPGTCNLQCFNGGSCFLNARRQPKCRCQPRYTGDKCE; listed as Homo sapiens)
25

Field request: MIC | item: PRT1433 (PPRRCDSNPCFRGVQCTDSRDGFQCGPCPEGYTGNGITCI; listed as Homo sapiens)
12.5

---

Reported MIC P. vulgaris is given for each of the following substances.
Tested on: Proteus vulgaris
Experiment: MIC against Gram-negative bacteria: Proteus vulgaris
Assay type: cell-based
Details: 96-well plate, 5×10^5 CFU/mL, 37° C., 10 h
Quick reminder: number only, in µg/mL, skip the unit.

As a guide, the following entries are already answered.
PRT740 (GLNDCMHNNGQCGQLCLAIPGGHRCGCASHYTLDPSSRNCS; listed as Homo sapiens)
12.5
PRT612 (CPCPGGSSCAVVPKTKEVVCTNCPTGTTGKRCELCDDGYFGDPLGRNGPVRLCRL; listed as Homo sapiens)
12.5
PRT713 (GTNVCARDNGGCKQLCLYRGNSRRTCACAHGYLAEDGVTCL; listed as Homo sapiens)
12.5
PRT689 (DNDECADEEPACEGGRCVNTVGSYHCTCEPPLVLDGSQRRCV; listed as Homo sapiens)
12.5
PRT718 (MTLCSALNCQYQCHETPYGGACFCPPGYIINHNDSRTCV; listed as Homo sapiens)
50
PRT624 (CRCSPLGAASAQCHENGTCVCRPGFEGYKCDRCHDNFFLTADGTHCQQC; listed as Homo sapiens)
12.5
PRT710 (DQDECAVYGTCSQTCRNTHGSYTCSCVEGYLMQPDNRSCK; listed as Homo sapiens)
25
PRT627 (CTCNPAGSLDTCDPRSGRCPCKENVEGNLCDRCRPGTFNLQPHNPAGCSS; listed as Homo sapiens)
12.5
PRT727 (EFDDCQIWGICDQKCESRPGRHLCHCEEGYILERGQYCK; listed as Homo sapiens)
12.5
PRT663 (DVNECDDLNGPAVLCVHGYCENTEGSYRCHCSPGYVAEAGPPHCT; listed as Homo sapiens)
50

Field request: MIC P. vulgaris | item: PRT692 (DVDECATGGRCQHGECANTRGGYTCVCPDGFLLDSSRSSCI; listed as Homo sapiens)
25

Field request: MIC P. vulgaris | item: PRT697 (DVDECAQEPPPCGPGRCDNTAGSFHCACPAGFRSRGPGAPCQ; listed as Homo sapiens)
25

Field request: MIC P. vulgaris | item: PRT728 (ATNPCKDNNGGCEQVCVLSHRTDNDGLGFRCKCTFGFQLDTDERHCI; listed as Homo sapiens)
12.5

Field request: MIC P. vulgaris | item: PRT693 (SSGMCQRNPQVCGPGRCISRPSGYTCACDSGFRLSPQGTRCI; listed as Homo sapiens)
50

Field request: MIC P. vulgaris | item: PRT631 (CSCHPQGSVSEQMPCDPVTGQCSCLPHVTARDCSRCYPGFFDLQPGRGCRS; listed as Homo sapiens)
12.5

---

System: Moraxella catarrhalis
Assay: MIC against Gram-negative bacteria: Moraxella catarrhalis
Assay type: cell-based
Conditions: Moraxella catarrhalis; 96-well plate, 5×10^5 CFU/mL, 37° C., 10 h
measurement-type: MIC (μg/mL) M. catarrhalis (µg/mL)
Quick reminder: number only, in µg/mL, skip the unit.

PRT32 (RCEAQKWGPECNHLCTACMNNGVCHEDTGECICPPGFMGRTCE; listed as Homo sapiens)
50

Field request: MIC (μg/mL) M. catarrhalis | item: PRT80 (TNVCDLNPCEHQSVCTRKPSAPHGYTCECPPNYLGPYCE; listed as Homo sapiens)
25

Field request: MIC (μg/mL) M. catarrhalis | item: PRT76 (EVDLCYSRPCGPHGRCRSREGGYTCLCRDGYTGEHCE; listed as Homo sapiens)
100

Field request: MIC (μg/mL) M. catarrhalis | item: PRT97 (DSRGCARWCPQNSSCVNATACRCNPGFSSFSEIITTPTETCD; listed as Homo sapiens)
100

---

Tested on: E. coli DH5α
Assay: Antibacterial activity: MIC and growth curve against E. coli DH5α in 96-well plate
Type: cell-based
Details: minimal inhibitory concentration against E. coli DH5α; 96-well plate, 5×10^5 CFU/mL, 37° C., judged after 8 h
measurement-type: MIC (µg/mL)
Quick reminder: number only, in µg/mL, skip the unit.

PRT854 (TCSMANCQYGCDVVKGQIRCQCPSPGLQLAPDGRTCV; listed as Homo sapiens)
12.5
PRT1087 (HEEPCGPSHKSFCLNGGLCYVIPTIPSPFCRCVENYTGARCE; listed as Homo sapiens)
50
PRT317 (VTDYCQLVRYLCQNGRCIPTPGSCRCECNKGFQLDLRGECI; listed as Homo sapiens)
12.5
PRT32 (RCEAQKWGPECNHLCTACMNNGVCHEDTGECICPPGFMGRTCE; listed as Homo sapiens)
12.5
PRT1199 (AFCEEGCRYGGTCVAPNKCVCPSGFTGSHCE; listed as Homo sapiens)
50

Field request: MIC | item: PRT507 (CICYGHARACPLDPATNKSRCECEHNTCGDSCDQCCPGFHQKPWRAGTFLTKTECEA; listed as Homo sapiens)
12.5

Field request: MIC | item: PRT908 (LDNACLTNPCRNGGTCDLLTLTEYKCRCPPGWSGKSCQ; listed as Homo sapiens)
50

Field request: MIC | item: PRT1416 (IEICAADCGGHGVCVGGTCRCEDGWMGAACDQ; listed as Homo sapiens)
25

Field request: MIC | item: PRT471 (VCEPGCGAHGTCHEPNKCQCQEGWHGRHCN; listed as Homo sapiens)
100

Field request: MIC | item: PRT1041 (VPLCAQECVHGRCVAPNQCQCVPGWRGDDCS; listed as Homo sapiens)
12.5

Field request: MIC | item: PRT976 (IGVRLEQLCQAGGQCVDEDSSHYCVCPEGRTGSHCE; listed as Homo sapiens)
50

Field request: MIC | item: PRT1244 (CGSTCPTCVQGSCDTVTGDCVCSAGYWGPSCN; listed as Homo sapiens)
50

Field request: MIC | item: PRT158 (PGESHANDLECSGKGKCTTKPSEATFSCTCEEQYVGTFCE; listed as Homo sapiens)
12.5

Field request: MIC | item: PRT1001 (EMTACHSGPCLNGGSCNPSPGGYYCTCPPSHTGPQCQ; listed as Homo sapiens)
12.5

Field request: MIC | item: PRT608 (CDCNGRSQECYFDPELYRSTGHGGHCTNCQDNTDGAHCERCRENFFRLGNNEACSS; listed as Homo sapiens)
12.5

Field request: MIC | item: PRT103 (CSSYGKLCRNGGKCRERPIGFFCDCTFSAYTGPFC; listed as Homo sapiens)
50
